Just for reference, ChEMBL document CHEMBL2380272 is where these values come from.

Each record here notes measured MIC90.
system: Mycobacterium tuberculosis; assay: Antimycobacterial activity against multidrug-resistant Mycobacterium tuberculosis LAM-1 clinical isolate assessed as growth inhibition after 6 days by BACTEC 460-TB method; assay type: functional; conditions: LAM-1, 144 h

{"columns": ["Line Notation", "Target Entity", "Measured Attribute", "Result"],
 "data": [
  ["O=Cc1ccc(OCCCCCCCCCCCCOc2ccc(C=O)cc2)cc1", "Mycobacterium tuberculosis", "MIC90", "0.4 µM"],
  ["O=Cc1ccc(OCCCCCCCCCOc2ccc(C=O)cc2)cc1", "Mycobacterium tuberculosis", "MIC90", "0.6 µM"],
  ["O=Cc1ccc(OCCCCCCCCCCCOc2ccc(C=O)cc2)cc1", "Mycobacterium tuberculosis", "MIC90", "0.6 µM"]
]}

Switching to the query record.
Request: Fill blank: measured MIC90 of the compound O=Cc1ccc(OCCCCCCCCCCOc2ccc(C=O)cc2)cc1 is ____.
Response: 0.6 µM
